tested on: Strep. suis (group D) SPS11; experiment: Veterinary bacteria MIC; format: cell-based; conditions: Streptococcus suis, Diagnostic Sensitivity Test Agar, 18 hours at 37°C
assay readout: MIC (µg/mL)

compound	assay readout	reading unit	sign qualifier	obs value
C/C(=C\C(=O)OCc1cccc(C#N)c1)CC1OCC(CC2OC2C(C)C(C)O)C(O)C1O (stereo not drawn) [Example 2, m-Cyanobenzyl monate A]	MIC	µg/mL	=	2.5
C/C(=C\C(=O)OCc1ccc(C#N)cc1)CC1OCC(CC2OC2C(C)C(C)O)C(O)C1O (stereo not drawn) [Example 3, p-Cyanobenzyl monate A]	MIC	µg/mL	=	2.5
C/C(=C\C(=O)OCc1cc(C#N)cc(C#N)c1)CC1OCC(CC2OC2C(C)C(C)O)C(O)C1O (stereo not drawn) [Example 6, 3,5-Dicyanobenzyl monate A]	MIC	µg/mL	=	40
C/C(=C\C(=O)OC(C)c1ccc(C#N)cc1)CC1OCC(CC2OC2C(C)C(C)O)C(O)C1O (stereo not drawn) [Example 4, 1-(p-Cyanophenyl)ethyl monate A]	MIC	µg/mL	=	20
C/C(=C\C(=O)OCc1ccccc1C#N)CC1OCC(CC2OC2C(C)C(C)O)C(O)C1O (stereo not drawn) [Example 1, o-Cyanobenzyl monate A]	MIC	µg/mL	=	10
C/C(=C\C(=O)OCc1cccc(C#N)c1)CC1OCC(C/C=C/C(C)C(C)O)C(O)C1O (stereo not drawn) [Example 5, m-Cyanobenzyl monate C]	MIC	µg/mL	>	80

* * *

This section presents compounds with their documented MIC values.
test system: M. suipneumoniae PW/C/210; experiment: Anti-mycoplasmal in vitro MIC; type: cell-based; settings: Mesomycoplasma hyopneumoniae, 144 h, Friis broth solidified with 0.9% agarose, 6 days incubation at 37°C

compound	MIC (µg/mL)
C/C(=C\C(=O)OCc1cc(C#N)cc(C#N)c1)CC1OCC(CC2OC2C(C)C(C)O)C(O)C1O (stereo not drawn) [Example 6, 3,5-Dicyanobenzyl monate A]	0.05
C/C(=C\C(=O)OCc1cccc(C#N)c1)CC1OCC(C/C=C/C(C)C(C)O)C(O)C1O (stereo not drawn) [Example 5, m-Cyanobenzyl monate C]	0.5
C/C(=C\C(=O)OCc1ccc(C#N)cc1)CC1OCC(CC2OC2C(C)C(C)O)C(O)C1O (stereo not drawn) [Example 3, p-Cyanobenzyl monate A]	0.1
C/C(=C\C(=O)OC(C)c1ccc(C#N)cc1)CC1OCC(CC2OC2C(C)C(C)O)C(O)C1O (stereo not drawn) [Example 4, 1-(p-Cyanophenyl)ethyl monate A]	1
C/C(=C\C(=O)OCc1cccc(C#N)c1)CC1OCC(CC2OC2C(C)C(C)O)C(O)C1O (stereo not drawn) [Example 2, m-Cyanobenzyl monate A]	0.05
C/C(=C\C(=O)OCc1ccccc1C#N)CC1OCC(CC2OC2C(C)C(C)O)C(O)C1O (stereo not drawn) [Example 1, o-Cyanobenzyl monate A]	0.5

* * *

This section presents compounds with their documented MIC values.
test system: Haemophilus influenzae Wy21; test: Human bacteria MIC; type: cell-based; settings: nutrient agar with 5% chocolated horse blood, 18 hours at 37°C

compound	reading unit	MIC
C/C(=C\C(=O)OCc1cccc(C#N)c1)CC1OCC(C/C=C/C(C)C(C)O)C(O)C1O (stereo not shown) [Example 5, m-Cyanobenzyl monate C]	µg/mL	2.5
C/C(=C\C(=O)OCc1cccc(C#N)c1)CC1OCC(CC2OC2C(C)C(C)O)C(O)C1O (stereo not shown) [Example 2, m-Cyanobenzyl monate A]	µg/mL	0.1
C/C(=C\C(=O)OCc1ccccc1C#N)CC1OCC(CC2OC2C(C)C(C)O)C(O)C1O (stereo not shown) [Example 1, o-Cyanobenzyl monate A]	µg/mL	0.25
C/C(=C\C(=O)OC(C)c1ccc(C#N)cc1)CC1OCC(CC2OC2C(C)C(C)O)C(O)C1O (stereo not shown) [Example 4, 1-(p-Cyanophenyl)ethyl monate A]	µg/mL	0.5

* * *

This section presents compounds with their documented MIC values.
tested on: M. bovis NCTC 10131; assay: microbe, parasite or virus in culture; type: cell-based; conditions: NCTC10131, 144 h

compound	system	MIC
C/C(=C\C(=O)OCc1ccc(C#N)cc1)CC1OCC(CC2OC2C(C)C(C)O)C(O)C1O (centres unmarked) [Example 3, p-Cyanobenzyl monate A]	M. bovis NCTC 10131	< 0.01 µg/mL
C/C(=C\C(=O)OC(C)c1ccc(C#N)cc1)CC1OCC(CC2OC2C(C)C(C)O)C(O)C1O (centres unmarked) [Example 4, 1-(p-Cyanophenyl)ethyl monate A]	M. bovis NCTC 10131	≤ 0.01 µg/mL
C/C(=C\C(=O)OCc1cccc(C#N)c1)CC1OCC(C/C=C/C(C)C(C)O)C(O)C1O (centres unmarked) [Example 5, m-Cyanobenzyl monate C]	M. bovis NCTC 10131	0.05 µg/mL
C/C(=C\C(=O)OCc1cccc(C#N)c1)CC1OCC(CC2OC2C(C)C(C)O)C(O)C1O (centres unmarked) [Example 2, m-Cyanobenzyl monate A]	M. bovis NCTC 10131	≤ 0.01 µg/mL
C/C(=C\C(=O)OCc1cc(C#N)cc(C#N)c1)CC1OCC(CC2OC2C(C)C(C)O)C(O)C1O (centres unmarked) [Example 6, 3,5-Dicyanobenzyl monate A]	M. bovis NCTC 10131	0.025 µg/mL

* * *

tested on: K. aerogenes A; assay: Human bacteria MIC; type: cell-based; settings: Klebsiella aerogenes, nutrient agar with 5% chocolated horse blood, 18 hours at 37°C

compound	MIC
C/C(=C\C(=O)OC(C)c1ccc(C#N)cc1)CC1OCC(CC2OC2C(C)C(C)O)C(O)C1O (stereo not drawn) [Example 4, 1-(p-Cyanophenyl)ethyl monate A]	> 100 µg/mL
C/C(=C\C(=O)OCc1cccc(C#N)c1)CC1OCC(C/C=C/C(C)C(C)O)C(O)C1O (stereo not drawn) [Example 5, m-Cyanobenzyl monate C]	> 100 µg/mL
C/C(=C\C(=O)OCc1cc(C#N)cc(C#N)c1)CC1OCC(CC2OC2C(C)C(C)O)C(O)C1O (stereo not drawn) [Example 6, 3,5-Dicyanobenzyl monate A]	> 100 µg/mL
C/C(=C\C(=O)OCc1cccc(C#N)c1)CC1OCC(CC2OC2C(C)C(C)O)C(O)C1O (stereo not drawn) [Example 2, m-Cyanobenzyl monate A]	100 µg/mL
C/C(=C\C(=O)OCc1ccc(C#N)cc1)CC1OCC(CC2OC2C(C)C(C)O)C(O)C1O (stereo not drawn) [Example 3, p-Cyanobenzyl monate A]	50 µg/mL
C/C(=C\C(=O)OCc1ccccc1C#N)CC1OCC(CC2OC2C(C)C(C)O)C(O)C1O (stereo not drawn) [Example 1, o-Cyanobenzyl monate A]	> 100 µg/mL

* * *

system: Bord. bronchiseptica BO9

compound	MIC [µg/mL]
C/C(=C\C(=O)OCc1ccc(C#N)cc1)CC1OCC(CC2OC2C(C)C(C)O)C(O)C1O (stereo not drawn) [Example 3, p-Cyanobenzyl monate A]	10
C/C(=C\C(=O)OC(C)c1ccc(C#N)cc1)CC1OCC(CC2OC2C(C)C(C)O)C(O)C1O (stereo not drawn) [Example 4, 1-(p-Cyanophenyl)ethyl monate A]	20
C/C(=C\C(=O)OCc1cccc(C#N)c1)CC1OCC(C/C=C/C(C)C(C)O)C(O)C1O (stereo not drawn) [Example 5, m-Cyanobenzyl monate C]	20
C/C(=C\C(=O)OCc1ccccc1C#N)CC1OCC(CC2OC2C(C)C(C)O)C(O)C1O (stereo not drawn) [Example 1, o-Cyanobenzyl monate A]	10
C/C(=C\C(=O)OCc1cc(C#N)cc(C#N)c1)CC1OCC(CC2OC2C(C)C(C)O)C(O)C1O (stereo not drawn) [Example 6, 3,5-Dicyanobenzyl monate A]	40
C/C(=C\C(=O)OCc1cccc(C#N)c1)CC1OCC(CC2OC2C(C)C(C)O)C(O)C1O (stereo not drawn) [Example 2, m-Cyanobenzyl monate A]	10

* * *

system: M. suipneumoniae MS 16; test: Anti-mycoplasmal in vitro MIC; type: cell-based; conditions: Mesomycoplasma hyopneumoniae, MS16, 144 h, Friis broth solidified with 0.9% agarose, 6 days incubation at 37°C

compound	reading unit	MIC
C/C(=C\C(=O)OCc1cc(C#N)cc(C#N)c1)CC1OCC(CC2OC2C(C)C(C)O)C(O)C1O (stereo not drawn) [Example 6, 3,5-Dicyanobenzyl monate A]	µg/mL	0.05
C/C(=C\C(=O)OCc1ccc(C#N)cc1)CC1OCC(CC2OC2C(C)C(C)O)C(O)C1O (stereo not drawn) [Example 3, p-Cyanobenzyl monate A]	µg/mL	0.1
C/C(=C\C(=O)OC(C)c1ccc(C#N)cc1)CC1OCC(CC2OC2C(C)C(C)O)C(O)C1O (stereo not drawn) [Example 4, 1-(p-Cyanophenyl)ethyl monate A]	µg/mL	1
C/C(=C\C(=O)OCc1cccc(C#N)c1)CC1OCC(CC2OC2C(C)C(C)O)C(O)C1O (stereo not drawn) [Example 2, m-Cyanobenzyl monate A]	µg/mL	0.05
C/C(=C\C(=O)OCc1ccccc1C#N)CC1OCC(CC2OC2C(C)C(C)O)C(O)C1O (stereo not drawn) [Example 1, o-Cyanobenzyl monate A]	µg/mL	0.5
C/C(=C\C(=O)OCc1cccc(C#N)c1)CC1OCC(C/C=C/C(C)C(C)O)C(O)C1O (stereo not drawn) [Example 5, m-Cyanobenzyl monate C]	µg/mL	0.5
